system: MYB; test: 3' UTR reporter interaction score (median-centred robust z-score of log2 firefly/Renilla activity); higher = less repression of the 3' UTR reporter; settings: HEK293T; 48 h
reported_endpoint: 3' UTR reporter interaction score
Give bare numbers.

Go through the items and report each one's 3' UTR reporter interaction score.
1. GUGUCUGCUUCCUGUGGGA
2. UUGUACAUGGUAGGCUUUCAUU
3. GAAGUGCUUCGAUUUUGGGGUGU
4. UACUCAGGAGAGUGGCAAUCACA
5. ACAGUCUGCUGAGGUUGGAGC

Result:
-0.0781
1.15
0.012
1.48
-0.0786

Please give 3' UTR reporter interaction score, item by item, for the list that follows.
1. UAGCACCAUCUGAAAUCGGUU
2. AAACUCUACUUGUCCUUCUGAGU
3. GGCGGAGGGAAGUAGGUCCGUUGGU

Result:
1. 0.702
2. 0.312
3. 0.0558
